From: paper PMC4336329

- testedOn: human ether-à-go-go-related gene (hERG) potassium channel (human, UniProt Q12809)
- Sequence (Q12809 whole entry, looked up): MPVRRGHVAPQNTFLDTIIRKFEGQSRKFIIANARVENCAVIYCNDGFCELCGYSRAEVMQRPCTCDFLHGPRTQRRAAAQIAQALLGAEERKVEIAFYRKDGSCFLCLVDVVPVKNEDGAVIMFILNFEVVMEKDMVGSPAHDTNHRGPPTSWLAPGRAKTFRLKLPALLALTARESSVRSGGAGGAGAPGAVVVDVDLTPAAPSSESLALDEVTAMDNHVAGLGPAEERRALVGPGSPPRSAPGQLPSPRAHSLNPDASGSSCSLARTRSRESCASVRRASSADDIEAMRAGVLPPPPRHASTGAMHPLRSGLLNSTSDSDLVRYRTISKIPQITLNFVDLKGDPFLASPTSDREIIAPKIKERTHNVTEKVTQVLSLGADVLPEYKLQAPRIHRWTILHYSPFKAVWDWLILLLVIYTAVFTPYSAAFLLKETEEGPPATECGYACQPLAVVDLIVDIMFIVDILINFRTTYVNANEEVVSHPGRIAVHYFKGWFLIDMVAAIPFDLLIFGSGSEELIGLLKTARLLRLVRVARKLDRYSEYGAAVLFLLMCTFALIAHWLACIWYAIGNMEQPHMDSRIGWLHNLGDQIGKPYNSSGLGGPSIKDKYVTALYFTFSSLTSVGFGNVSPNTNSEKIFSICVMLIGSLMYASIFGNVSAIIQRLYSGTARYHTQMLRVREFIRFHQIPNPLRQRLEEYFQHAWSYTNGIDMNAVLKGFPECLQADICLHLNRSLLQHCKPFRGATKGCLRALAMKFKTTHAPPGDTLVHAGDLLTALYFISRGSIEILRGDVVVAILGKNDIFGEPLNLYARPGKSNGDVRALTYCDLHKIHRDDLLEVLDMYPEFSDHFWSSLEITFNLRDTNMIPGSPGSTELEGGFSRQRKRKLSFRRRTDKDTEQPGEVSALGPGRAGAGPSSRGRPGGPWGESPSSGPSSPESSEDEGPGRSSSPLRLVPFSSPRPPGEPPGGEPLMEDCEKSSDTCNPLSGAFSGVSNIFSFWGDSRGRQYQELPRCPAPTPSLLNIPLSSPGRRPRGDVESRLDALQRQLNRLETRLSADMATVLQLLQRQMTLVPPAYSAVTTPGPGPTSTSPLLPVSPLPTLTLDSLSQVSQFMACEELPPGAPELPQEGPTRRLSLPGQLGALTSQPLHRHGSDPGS
- test: primary screen, population patch clamp on CHO cells stably expressing hERG; higher = less effect of the substance;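 further: peak tail current of the secondary pulse compared with the same well before compound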
The whole screen tested about 310,000 compounds, of which about 14,000 (4.5%) showed an effect of 50% or more. The effect is printed as a negative number. The full list was thinned out, with strong results kept by preference.
propertyMeasured: hERG current change (%, negative = inhibition) at 10uM (%)
I only need the number, in %, no unit after it.

The examples below pair each entry with its known result.
C/C(=N\NC(=O)c1cc(-c2cccnc2)nc2ccccc12)c1ccccc1O; 0.355
O=[n+]1c2c(n([O-])c3cc(F)c(F)cc31)CCCC2; 10.2
CCc1nn(CCCC(=O)NCc2ccc(C)cc2)c(=O)c2cc3occc3n12; -8.1

Q: Give the reported value of hERG current change (%, negative = inhibition) at 10uM for this record: Cc1ncc(S(=O)(=O)C(C)(C)C)c(N)n1
Ans: 2.37

Q: Give the reported value of hERG current change (%, negative = inhibition) at 10uM for this record: COc1ccccc1N/C=C/c1onc(C)c1[N+](=O)[O-]
Ans: 1.63

Q: Give the reported value of hERG current change (%, negative = inhibition) at 10uM for this record: C=CCc1c(C)nc(SC)nc1Nc1ccc(C)cc1
Ans: -14.3

Q: Give the reported value of hERG current change (%, negative = inhibition) at 10uM for this record: O=C(O)CCCCCN1C(=O)/C(=C\c2ccc(-c3ccc(Cl)cc3)o2)SC1=S
Ans: 18

Q: Give the reported value of hERG current change (%, negative = inhibition) at 10uM for this record: O=C(CCCn1ncn2c(cc3occc32)c1=O)N1CCc2ccccc2C1
Ans: -63

Q: Give the reported value of hERG current change (%, negative = inhibition) at 10uM for this record: O=C(Nc1ccc2ncccc2c1)c1cc(Cl)ccc1Cl
Ans: 12.6

====

- testedOn: human ether-à-go-go-related gene (hERG) potassium channel (human)
- test: primary screen, population patch clamp on CHO cells stably expressing hERG; higher = less effect of the substance
The campaign covered roughly 310,000 compounds. About 14,000 (4.5%) showed an effect of 50% or more. Effects have a minus sign here. The sample as a whole holds a higher share of strong results than the screen did.
Form field: hERG current change (%, negative = inhibition) at 10uM (one value per entry).
I only need the number, in %, no unit after it.

The examples below pair each entry with its known result.
Cc1cccc(/C=N/NC(=O)Cc2ccc(Cl)cc2)c1O; 18.6
O=C(CCCN1C(=O)c2ccccc2C1=O)NCCCn1ccnc1; 13.4
N/C(=N\OC(=O)c1cc(Br)ccc1Cl)c1ccccn1; 13.1
O=C(O)c1ccc(Br)c(S(=O)(=O)N2CCCC2)c1; 9.91
COc1ccccc1/C=C1\SC(=S)N(CCC(=O)NCCCn2ccnc2)C1=O; -44.7

Q: State, for human ether-à-go-go-related gene (hERG) potassium channel (human), measured hERG current change (%, negative = inhibition) at 10uM of the compound listed here: CC(C)c1ccc(/C=C2\SC(=S)N(CCC(=O)N3CCCCC3CCO)C2=O)cc1 (stereo not drawn)
Ans: 20.3

Q: State, for human ether-à-go-go-related gene (hERG) potassium channel (human), measured hERG current change (%, negative = inhibition) at 10uM of the compound listed here: O=C(CCCN1C(=O)/C(=C/c2ccc(F)cc2)SC1=S)NCCCn1ccnc1
Ans: -71

Q: State, for human ether-à-go-go-related gene (hERG) potassium channel (human), measured hERG current change (%, negative = inhibition) at 10uM of the compound listed here: COc1ccc(NC(=S)N2CCC(C(=O)c3ccc(OC)cc3)CC2)cc1
Ans: -45.4

Q: State, for human ether-à-go-go-related gene (hERG) potassium channel (human), measured hERG current change (%, negative = inhibition) at 10uM of the compound listed here: COC(=O)c1ccccc1NC(=O)c1ccc(Cn2cc(Cl)cn2)o1
Ans: 4.21
